Test: Bidirectional transport experiments on Caco-2 cell monolayer model
Type: in vitro ADME, human
Conditions: human, Caco-2, Papp(AP-BL), AP to BL; donor 10 μM; 3 h, 37 °C; single time point; mean ± S.D. (n=3)
assay.metric: Papp A→B at 3 h, 10 μM (×10⁻⁶ cm/s)

compound.structure.string	unit	assay.result
C[C@H]1O[C@@H](O[C@H]2CC[C@@]3(C)[C@@H](CC[C@]4(C)[C@@H]3C=C[C@]35OC[C@@]6(CCC(C)(C)C[C@H]63)[C@@H](O)C[C@]54C)[C@]2(C)CO)[C@H](O)[C@@H](O[C@@H]2O[C@H](CO)[C@@H](O)[C@H](O)[C@H]2O)[C@H]1O	×10⁻⁶ cm/s	0.088
